Quick reference for EC50 among some molecules
Molecular target: Aryl hydrocarbon receptor (Homo sapiens) (UniProt P35869)
Sequence (P35869 whole entry, looked up): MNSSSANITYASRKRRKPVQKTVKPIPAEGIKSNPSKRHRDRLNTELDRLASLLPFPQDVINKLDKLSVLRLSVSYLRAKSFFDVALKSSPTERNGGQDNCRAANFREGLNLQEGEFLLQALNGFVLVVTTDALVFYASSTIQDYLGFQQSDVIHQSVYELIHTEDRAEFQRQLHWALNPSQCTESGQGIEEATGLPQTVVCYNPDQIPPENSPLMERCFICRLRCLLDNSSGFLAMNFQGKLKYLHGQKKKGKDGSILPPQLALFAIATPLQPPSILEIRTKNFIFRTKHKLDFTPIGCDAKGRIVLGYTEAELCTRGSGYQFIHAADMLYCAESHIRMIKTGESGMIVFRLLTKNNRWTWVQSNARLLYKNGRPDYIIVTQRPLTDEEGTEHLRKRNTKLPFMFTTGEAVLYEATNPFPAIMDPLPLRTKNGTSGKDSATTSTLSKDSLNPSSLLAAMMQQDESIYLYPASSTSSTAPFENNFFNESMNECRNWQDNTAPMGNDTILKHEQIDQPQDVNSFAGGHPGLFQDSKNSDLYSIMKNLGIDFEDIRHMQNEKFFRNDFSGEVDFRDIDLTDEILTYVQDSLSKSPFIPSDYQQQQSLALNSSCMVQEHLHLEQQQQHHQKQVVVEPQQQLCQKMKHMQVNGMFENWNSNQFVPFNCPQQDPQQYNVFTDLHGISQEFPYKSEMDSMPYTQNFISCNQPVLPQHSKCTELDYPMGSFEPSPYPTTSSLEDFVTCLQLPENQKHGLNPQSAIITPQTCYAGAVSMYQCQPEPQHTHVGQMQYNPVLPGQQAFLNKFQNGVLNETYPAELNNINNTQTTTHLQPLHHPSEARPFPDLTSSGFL
Assay: AHR activator potency, dose response, cell-based, luminescence, luciferase reporter, human (AID 493060)
Settings: Human cell line AHR-responsive luciferase reporter

Worked examples follow.
[
  {
    "MOLECULE": "COc1cc2ccccc2cc1C(=O)Nc1ccc(C)cc1",
    "TESTED ON": "Aryl hydrocarbon receptor (Homo sapiens) (UniProt P35869)",
    "EC50": "747 nM"
  },
  {
    "MOLECULE": "COc1ccc(C(=O)Nc2cc(OC)c(NC(=O)c3ccco3)cc2OC)cc1",
    "TESTED ON": "Aryl hydrocarbon receptor (Homo sapiens) (UniProt P35869)",
    "EC50": "1620 nM"
  },
  {
    "MOLECULE": "CN(C)c1nc(N)nc(-c2nc3ccccc3s2)n1",
    "TESTED ON": "Aryl hydrocarbon receptor (Homo sapiens) (UniProt P35869)",
    "EC50": "3330 nM"
  }
]

Fill in: EC50 of O=C1c2ccccc2-c2nc3ccccc3nc21 is ___ 3240 nM

Same read-out for Cc1ccc(-c2cc(-c3cccs3)[nH]n2)c(O)c1 ? 853 nM

Same read-out for COc1ccc(NC(=O)c2cccc3c(Br)cccc23)cc1 ? 1860 nM

Same read-out for CCOc1ccc(NC(=O)c2cc3ccccc3cc2OC)cc1 ? 1780 nM

Same read-out for CCOc1ccccc1NC(=O)c1ccc2nccnc2c1 ? 2840 nM

Same read-out for Cc1ccccc1-c1nc(-c2cccnc2)no1 ? 1330 nM

Same read-out for COc1cc2c(cc1NC(=O)Nc1ccc(C)cc1)oc1ccccc12 ? 889 nM
